experiment-summary: Human HepG2 cell viability assay in 384 well format
Assay type: toxicity, cell-based
Parameters: dose 125 nL, time 70.5 hour; concentration not given beside the values
condition-set: HepG2 cells, read-out: Inhibition
Could you please report measured cytotoxicity at 70.5 h for the items listed next?

• CC(CNS(N)(=O)=O)Oc1ccc(Cl)cc1 (configuration not stated) = 1.53%
• Cc1ccc(C(=O)Nc2c(C(=O)N(C)C)nn(C)c2C)cc1 = -4.31%

Need cytotoxicity at 70.5 h for each of these molecules.
1. CCc1c(C)sc(NC(=O)CN2CCN(CC)CC2)c1C(=O)OC
2. Cc1cc(C)c2c(NCCC3(O)CCCC3)ncnc2n1

Completion:
1. -2.99%
2. -6.61%

----------
experiment-summary: Human HepG2 cell viability assay in 384 well format
Format: toxicity, cell-based
Set-up: dose 125 nL, time 70.5 hour; concentration not given beside the values
condition-set: HepG2 cells, read-out: Inhibition
quantity: cytotoxicity at 70.5 h (%)
One number for each entry, in %.

Need cytotoxicity at 70.5 h for each of these compounds.
1. c1cncc(-c2cccc(-c3ccn(CCN4CCCCC4)n3)c2)c1
2. CC(C)NCc1nc(-c2ccc3c(c2)OCO3)c[nH]1
3. CO[C@@H]1CCN(S(=O)(=O)c2cn(C)cn2)[C@H]1Cc1ccccc1
4. O=C(NCCc1nncn1C1CC1)C1SCCc2sccc21 (centres undefined)
5. COc1ccc(CNCCc2cccc(C(N)=O)c2)cc1C

Completion:
1: 13.9; 2: -11.7; 3: -1.49; 4: -8.14; 5: 11.7

----------
Could you please report measured cytotoxicity at 70.5 h for the items listed next?
experiment-summary: Human HepG2 cell viability assay in 384 well format
Format: toxicity, cell-based
Design: dose 125 nL, time 70.5 hour; concentration not given beside the values
condition-set: HepG2 cells, read-out: Inhibition
Give bare numbers, in %.

See these solved cases before continuing.
• Cc1ccccc1C(C(=O)NCCS(C)(=O)=O)N(C)C (stereo unspecified) = -14.5
• CN1C(Cn2cccn2)C[C@@H]2CN(C(=O)c3cccc(C#N)c3)CC[C@@H]21 (stereo partly specified) = -7.79
• COc1ccc(CC(=O)NC(C)c2nc3cccnc3n2C(C)C)cc1 (stereo unspecified) = 2.45
• CCC(CO)N(Cc1ccsc1)Cc1cccc(O)c1 (stereo unspecified) = -0.682
• CCc1ccc(C(=O)NCCCC2(C3OCCO3)CCOCC2)cc1 = 11.6
• Cn1nc(CC(C)(C)C)cc1NC(=O)c1ccc(CNC(N)=O)cc1 = -7.81
• O=C(Nc1nc2c(s1)CN(S(=O)(=O)C1CC1)CC2)c1ccc(=O)[nH]c1 = -10.9
• O=S(=O)(NC1=NCN(CCc2cccs2)CN1)c1ccc(Br)cc1 = -18.9
• Cc1ccc(OCCN(C)C(C)c2cccc(S(N)(=O)=O)c2)cc1 (stereo unspecified) = 1.1
• CC(C)(C)OC(=O)N1CCCCC(NC(=O)CCc2cccnc2)C1 (stereo unspecified) = -3.57

// below: cytotoxicity at 70.5 h requested for another molecule
Prompt: Consider the molecule CCOc1ccccc1-n1c(-c2cn(CC)nc2C)n[nH]c1=O and give its measured cytotoxicity at 70.5 h.
Completion: -4.81

----------
Could you please report measured cytotoxicity at 70.5 h for the items listed next?
experiment-summary: Human HepG2 cell viability assay in 384 well format
Type: toxicity, cell-based
Design: dose 125 nL, time 70.5 hour; concentration not given beside the values
condition-set: HepG2 cells, read-out: Inhibition
One number for each entry, in %.

See these solved cases before continuing.
* CCCC(O)CN1CCC(=O)N(CCOC)Cc2ccccc21 (stereo not drawn) | -10.1
* CCn1nc(C)c(CCNC(=O)c2cccc(NCC(=O)O)c2)c1C | 1.17

Need cytotoxicity at 70.5 h for each of these compounds.
1. Cc1c(Cc2ccccc2)c(O)nc2nc(N3CCOCC3)nn12
2. CCC(O)CN1CCN(C(=O)Cc2cc(Cl)ccc2OC)CC1 (stereo not drawn)

Completion:
-8.68
-8.81
